The origin of these recorded values is ChEMBL document CHEMBL1146374.

# PROTOCOL SUMMARY: Cytotoxicity against Vero-C1008 cells at 6.25 to 50 ug/ml
# Assay type: cell-based
# CONDITION SUMMARY: chlorocebus sabaeus
OBSERVATION TYPE: Activity

Nn1c(S)nnc1Cc1csc(NC(=O)CCl)n1    Non-toxic
CC(=O)NNC(=O)CSc1nnc(Cc2csc(NC(C)=O)n2)n1NC(=O)c1ccccc1    Non-toxic
O=C(CCl)Nc1nc(Cc2nnc(S)n2NC(=O)c2ccccc2)cs1    Non-toxic
CC(=O)Nc1nc(Cc2nnc(SCC#N)n2NC(=O)c2ccccc2)cs1    Non-toxic
O=C(O)CCNc1nc(Cc2nnc(SCC(=O)N/N=C\c3ccccc3)n2NC(=O)c2ccccc2)cs1    Non-toxic

Using the record for O=C(CSc1nnc(Cc2csc(NC(=O)CCl)n2)n1NC(=O)c1ccccc1)N/N=C/c1ccccc1 , report its Activity.
Non-toxic

Using the record for O=C(O)CCNc1nc(Cc2nnc(SCSc3nnc(Cc4csc(NCCC(=O)O)n4)n3NC(=O)c3ccccc3)n2NC(=O)c2ccccc2)cs1 , report its Activity.
Non-toxic

Using the record for O=C(Nc1nc(Cc2nnc(S)n2NC(=O)c2ccccc2)cs1)c1ccccc1 , report its Activity.
Non-toxic

Using the record for NNC(=O)CSc1nnc(Cc2csc(NC(=O)CCl)n2)n1NC(=O)c1ccccc1 , report its Activity.
Non-toxic

###

# Test system: Staphylococcus aureus
# PROTOCOL SUMMARY: Antibacterial activity against Staphylococcus aureus at 50 to 100 uM after 24 hrs by well diffusion method
# Type: functional
Listing of entries alongside the reported zone of inhibition.
Your answer is read as mm, so omit the unit and give the number.

# annotated cases, reported zone of inhibition shown
N#CCSc1nnc(Cc2csc(NC(=O)c3ccccc3)n2)n1NC(=O)c1ccccc1    26
Nn1c(S)nnc1Cc1csc(NCCC(=O)O)n1    25
Nn1c(S)nnc1CSc1nnc(Cc2csc(NC(=O)c3ccccc3)n2)n1NC(=O)c1ccccc1    12
COC(=O)CSc1nnc(Cc2csc(NCCC(=O)O)n2)n1NC(=O)c1ccccc1    16
CC(=O)Nc1nc(Cc2nnc(SCSc3nnc(Cc4csc(NC(C)=O)n4)n3NC(=O)c3ccccc3)n2NC(=O)c2ccccc2)cs1    16

Using the record for O=C(O)CCNc1nc(Cc2nnc(S)n2NC(=O)c2ccccc2)cs1 , report its zone of inhibition.
11

Using the record for O=C(CCl)Nc1nc(Cc2nnc(SCSc3nnc(Cc4csc(NC(=O)CCl)n4)n3NC(=O)c3ccccc3)n2NC(=O)c2ccccc2)cs1 , report its zone of inhibition.
22

Using the record for O=C(O)CCNc1nc(Cc2nnc(SCC(=O)N/N=C\c3ccccc3)n2NC(=O)c2ccccc2)cs1 , report its zone of inhibition.
18

Using the record for O=C(CSc1nnc(Cc2csc(NC(=O)c3ccccc3)n2)n1NC(=O)c1ccccc1)N/N=C/c1ccccc1 , report its zone of inhibition.
32

###

# System: Escherichia coli
# PROTOCOL SUMMARY: Antibacterial activity against Escherichia coli at 50 to 100 uM after 24 hrs by well diffusion method
# Type: functional
Listing of entries alongside the reported zone of inhibition.
Your answer is read as mm, so omit the unit and give the number.

# annotated cases, reported zone of inhibition shown
Nn1c(S)nnc1Cc1csc(NC(=O)c2ccccc2)n1    18
N#CCSc1nnc(Cc2csc(NC(=O)CCl)n2)n1NC(=O)c1ccccc1    10
O=C(O)CCNc1nc(Cc2nnc(SCC(=O)N/N=C\c3ccccc3)n2NC(=O)c2ccccc2)cs1    14

Using the record for Nn1c(S)nnc1CSc1nnc(Cc2csc(NCCC(=O)O)n2)n1NC(=O)c1ccccc1 , report its zone of inhibition.
18

Using the record for CC(=O)Nc1nc(Cc2nnc(S)n2NC(=O)c2ccccc2)cs1 , report its zone of inhibition.
20

Using the record for O=C(Nc1nc(Cc2nnc(SCSc3nnc(Cc4csc(NC(=O)c5ccccc5)n4)n3NC(=O)c3ccccc3)n2NC(=O)c2ccccc2)cs1)c1ccccc1 , report its zone of inhibition.
16

Using the record for CC(=O)Nc1nc(Cc2nnc(SCC#N)n2NC(=O)c2ccccc2)cs1 , report its zone of inhibition.
20

Using the record for O=C(O)CCNc1nc(Cc2nnc(SCSc3nnc(Cc4csc(NCCC(=O)O)n4)n3NC(=O)c3ccccc3)n2NC(=O)c2ccccc2)cs1 , report its zone of inhibition.
10

Using the record for NNC(=O)CSc1nnc(Cc2csc(NCCC(=O)O)n2)n1NC(=O)c1ccccc1 , report its zone of inhibition.
14

###

# Test system: Staphylococcus aureus
# PROTOCOL SUMMARY: Antibacterial activity against Staphylococcus aureus at 50 to 100 uM after 24 hrs by well diffusion method
# Type: functional
OBSERVATION TYPE: zone of inhibition (mm)
Your answer is read as mm, so omit the unit and give the number.

# annotated cases, reported zone of inhibition shown
CC(=O)Nc1nc(Cc2nnc(SCc3nnc(S)n3N)n2NC(=O)c2ccccc2)cs1    14
CC(=O)NNC(=O)CSc1nnc(Cc2csc(NC(C)=O)n2)n1NC(=O)c1ccccc1    21
COC(=O)CSc1nnc(Cc2csc(NC(C)=O)n2)n1NC(=O)c1ccccc1    22
N#CCSc1nnc(Cc2csc(NCCC(=O)O)n2)n1NC(=O)c1ccccc1    26
N#CCSc1nnc(Cc2csc(NC(=O)CCl)n2)n1NC(=O)c1ccccc1    20
Nn1c(S)nnc1Cc1csc(NC(=O)c2ccccc2)n1    22
O=C(Nc1nc(Cc2nnc(S)n2NC(=O)c2ccccc2)cs1)c1ccccc1    16
Nn1c(S)nnc1Cc1csc(NC(=O)CCl)n1    18

Using the record for O=C(O)CCNc1nc(Cc2nnc(SCSc3nnc(Cc4csc(NCCC(=O)O)n4)n3NC(=O)c3ccccc3)n2NC(=O)c2ccccc2)cs1 , report its zone of inhibition.
18

Using the record for O=C(CCl)Nc1nc(Cc2nnc(S)n2NC(=O)c2ccccc2)cs1 , report its zone of inhibition.
20

###

# System: Escherichia coli
# PROTOCOL SUMMARY: Antibacterial activity against Escherichia coli at 50 to 100 uM after 24 hrs by well diffusion method
# Type: functional
Listing of entries alongside the reported zone of inhibition.
Please format your answer as a value with the unit trailing.

# annotated cases, reported zone of inhibition shown
N#CCSc1nnc(Cc2csc(NC(=O)c3ccccc3)n2)n1NC(=O)c1ccccc1    22 mm
CC(=O)Nc1nc(Cc2nnc(SCc3nnc(S)n3N)n2NC(=O)c2ccccc2)cs1    12 mm
Nn1c(S)nnc1CSc1nnc(Cc2csc(NC(=O)CCl)n2)n1NC(=O)c1ccccc1    10 mm
COC(=O)CSc1nnc(Cc2csc(NCCC(=O)O)n2)n1NC(=O)c1ccccc1    12 mm
CC(=O)Nc1nc(Cc2nnc(SCC(=O)NN)n2NC(=O)c2ccccc2)cs1    26 mm
CC(=O)NNC(=O)CSc1nnc(Cc2csc(NC(C)=O)n2)n1NC(=O)c1ccccc1    10 mm

Using the record for Nn1c(S)nnc1CSc1nnc(Cc2csc(NC(=O)c3ccccc3)n2)n1NC(=O)c1ccccc1 , report its zone of inhibition.
18 mm

Using the record for CC(=O)Nc1nc(Cc2nnc(S)n2N)cs1 , report its zone of inhibition.
15 mm

Using the record for O=C(CSc1nnc(Cc2csc(NC(=O)c3ccccc3)n2)n1NC(=O)c1ccccc1)N/N=C/c1ccccc1 , report its zone of inhibition.
30 mm

Using the record for Nn1c(S)nnc1Cc1csc(NCCC(=O)O)n1 , report its zone of inhibition.
20 mm

Using the record for COC(=O)CSc1nnc(Cc2csc(NC(=O)c3ccccc3)n2)n1NC(=O)c1ccccc1 , report its zone of inhibition.
20 mm

Using the record for O=C(CCl)Nc1nc(Cc2nnc(S)n2NC(=O)c2ccccc2)cs1 , report its zone of inhibition.
18 mm

Using the record for CC(=O)Nc1nc(Cc2nnc(SCSc3nnc(Cc4csc(NC(C)=O)n4)n3NC(=O)c3ccccc3)n2NC(=O)c2ccccc2)cs1 , report its zone of inhibition.
12 mm

Using the record for O=C(CCl)Nc1nc(Cc2nnc(SCSc3nnc(Cc4csc(NC(=O)CCl)n4)n3NC(=O)c3ccccc3)n2NC(=O)c2ccccc2)cs1 , report its zone of inhibition.
20 mm

###

# System: Mycobacterium tuberculosis
# PROTOCOL SUMMARY: Antituberculosis activity against Mycobacterium tuberculosis H37Rv by Microplate Alamar Blue Assay
# Format: functional
OBSERVATION TYPE: log10(MIC) (log10 of the value in µM)
# values: log10(MIC), units µM

# annotated cases, reported log10(MIC) shown
NNC(=O)CSc1nnc(Cc2csc(NCCC(=O)O)n2)n1NC(=O)c1ccccc1    0.80
O=C(O)CCNc1nc(Cc2nnc(SCC(=O)N/N=C\c3ccccc3)n2NC(=O)c2ccccc2)cs1    0.50
CC(=O)Nc1nc(Cc2nnc(SCC#N)n2NC(=O)c2ccccc2)cs1    0.80
O=C(CSc1nnc(Cc2csc(NC(=O)c3ccccc3)n2)n1NC(=O)c1ccccc1)N/N=C/c1ccccc1    -0.41
CC(=O)Nc1nc(Cc2nnc(S)n2N)cs1    0.80

Using the record for O=C(CSc1nnc(Cc2csc(NC(=O)CCl)n2)n1NC(=O)c1ccccc1)N/N=C/c1ccccc1 , report its log10(MIC).
-0.11

Using the record for CC(=O)Nc1nc(Cc2nnc(SCC(=O)N/N=C/c3ccccc3)n2NC(=O)c2ccccc2)cs1 , report its log10(MIC).
0.19

Using the record for NNC(=O)CSc1nnc(Cc2csc(NC(=O)CCl)n2)n1NC(=O)c1ccccc1 , report its log10(MIC).
0.50

Using the record for NNC(=O)CSc1nnc(Cc2csc(NC(=O)c3ccccc3)n2)n1NC(=O)c1ccccc1 , report its log10(MIC).
0.80

Using the record for CC(=O)Nc1nc(Cc2nnc(SCC(=O)NN)n2NC(=O)c2ccccc2)cs1 , report its log10(MIC).
0.50

Using the record for N#CCSc1nnc(Cc2csc(NC(=O)c3ccccc3)n2)n1NC(=O)c1ccccc1 , report its log10(MIC).
0.50
